Measured values drawn from ChEMBL document CHEMBL1152134 for this set.

assay_target: Low molecular weight protein-tyrosine phosphatase A (Mycobacterium tuberculosis)
protocol_summary: Inhibition of Mycobacterium tuberculosis recombinant protein tyrosine phosphatase assessed as enzyme activity at 25 uM
Parameters: scale not given: the % may be the effect or the level left
Would you mind telling me the reported Activity of each entry?
Response body: numeric value in %, unit text excluded.

Query: For the record "O=C(/C=C/c1ccc2ccccc2c1)c1ccc(Br)cc1" , what value of Activity is listed for Low molecular weight protein-tyrosine phosphatase A (Mycobacterium tuberculosis)?
Reply: 89.2

Query: For the record "COc1ccc(C(=O)/C=C/c2cccc3ccccc23)c(OC)c1" , what value of Activity is listed for Low molecular weight protein-tyrosine phosphatase A (Mycobacterium tuberculosis)?
Reply: 80

Query: For the record "O=C(/C=C/c1cccc2ccccc12)c1ccc(Br)cc1" , what value of Activity is listed for Low molecular weight protein-tyrosine phosphatase A (Mycobacterium tuberculosis)?
Reply: 75

Query: For the record "COc1ccc(OC)c(C(=O)/C=C/c2ccc3c(c2)OCO3)c1" , what value of Activity is listed for Low molecular weight protein-tyrosine phosphatase A (Mycobacterium tuberculosis)?
Reply: 91.3

Query: For the record "O=C(/C=C/c1ccc2ccccc2c1)c1ccc([N+](=O)[O-])cc1" , what value of Activity is listed for Low molecular weight protein-tyrosine phosphatase A (Mycobacterium tuberculosis)?
Reply: 89

Query: For the record "O=C(/C=C/c1cccc2ccccc12)c1ccc([N+](=O)[O-])cc1" , what value of Activity is listed for Low molecular weight protein-tyrosine phosphatase A (Mycobacterium tuberculosis)?
Reply: 82
